Test system: Vero E6 cells
particulars: parallel plates
measured_quantity: compound cytotoxicity (in words)

1. Cc1cccc(/C=N/Nc2cc(N3CCOCC3)nc(OCCc3ccccn3)n2)c1 [apilimod]    minimal cytotoxicity
2. CCOC(=O)[C@H]1O[C@@H]1C(=O)N[C@@H](CC(C)C)C(=O)NCCC(C)C [E64D]    minimal cytotoxicity
